experiment: adipocyte viability effects, profiling panel, cell-based, 3T3-L1 adipocytes, calcein-AM fluorescence, 48 h, basal (AID 1163); conditions: 3T3-L1 adipocytes viability, higher = more signal; note: test concentration not given here
For each record, write down the corresponding z-score.
Numbers only.

Worked examples, 2 compounds total:
[[record]]
compound = "CCOC(=O)[C@H](CC(C)C)NC(=O)CCC1CC(OC(=O)NCc2ccc3c(c2)OCO3)CC2(CCCC(COC(=O)NCC3CCCCC3)O2)O1 (some centres not stated)"
readout_label = "z-score"
test_result = -0.721

[[record]]
compound = "CCOC(=O)NN=C1C[C@@H](O)[C@@H](O)[C@@H]2[C@@H]3C(=O)N(c4cccc(Oc5ccccc5)c4)C(=O)[C@@H]3CC[C@H]12"
readout_label = "z-score"
test_result = 1.01


Record z-score for all entries; do not skip any.
1. C#CCCCON=C1C[C@@H](O)[C@@H](O)[C@@H]2[C@@H]3C(=O)N(c4ccc(F)cc4F)C(=O)[C@@H]3CC[C@H]12
2. COC(=O)CC=C[C@@H](C)[C@@H](C=NOC[C@@H](O)[C@H]1O[C@@H]2OC(C)(C)O[C@@H]2[C@H]1O)NS(=O)(=O)c1ccc(C)cc1

[-0.0377, 0.531]

I would be grateful if you could provide z-score for each of the following entries.
1. CC(C)CON=C1C[C@@H](O)[C@@H](O)[C@@H]2[C@@H]3C(=O)N(C4CCCCC4)C(=O)[C@@H]3CC[C@H]12
2. CON=C(C)CCC(=O)OC[C@H]1O[C@H](c2ccccc2)C=C[C@@H]1Oc1ccc(OC)cc1
3. CC(CCC(=O)OC[C@H]1O[C@H](C#Cc2ccccc2)C=C[C@@H]1Oc1ccc(C)cc1)=NO[C@H](C)c1cn([C@H](CO)Cc2ccccc2)nn1

[0.274, -0.119, -0.643]

Origin of measurements: PubChem BioAssay
